src = the kinase profiling compilation of Christmann-Franck et al. (2016)

Target entity: BRAF (human) (UniProt P15056)
Sequence (P15056 whole entry, looked up): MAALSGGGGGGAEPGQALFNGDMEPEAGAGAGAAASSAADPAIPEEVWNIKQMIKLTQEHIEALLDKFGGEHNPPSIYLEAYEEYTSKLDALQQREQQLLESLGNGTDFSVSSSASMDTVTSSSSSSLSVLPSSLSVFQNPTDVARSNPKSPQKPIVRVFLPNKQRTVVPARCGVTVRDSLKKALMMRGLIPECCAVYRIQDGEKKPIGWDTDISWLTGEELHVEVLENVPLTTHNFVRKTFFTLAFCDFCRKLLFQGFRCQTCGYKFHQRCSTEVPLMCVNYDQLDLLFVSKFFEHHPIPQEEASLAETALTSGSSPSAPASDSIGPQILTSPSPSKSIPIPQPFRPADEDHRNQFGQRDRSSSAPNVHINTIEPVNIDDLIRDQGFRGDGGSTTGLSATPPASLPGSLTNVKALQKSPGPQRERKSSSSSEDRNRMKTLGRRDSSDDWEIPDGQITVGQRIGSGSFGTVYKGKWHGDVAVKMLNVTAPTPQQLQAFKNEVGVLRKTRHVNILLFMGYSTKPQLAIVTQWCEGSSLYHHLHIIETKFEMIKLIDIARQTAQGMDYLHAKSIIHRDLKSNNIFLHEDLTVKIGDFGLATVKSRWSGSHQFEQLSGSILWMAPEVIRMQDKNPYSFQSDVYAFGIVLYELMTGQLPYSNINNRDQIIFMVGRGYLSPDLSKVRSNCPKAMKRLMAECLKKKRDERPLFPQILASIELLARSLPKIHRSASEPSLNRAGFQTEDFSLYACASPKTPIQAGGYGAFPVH
Method notes: KINOMEscan competition binding
Experimental setup: compound 10.0 µM

Entry smiles: COc1ccc(CNC(=O)Nc2ncc([N+](=O)[O-])s2)cc1
Unit text: %
kinase still bound, per cent of control: 57
--
Entry smiles: Cn1cc(C2=C(c3ccc(Cl)cc3Cl)C(=O)NC2=O)c2ccccc21
Unit text: %
kinase still bound, per cent of control: 80
--
Entry smiles: O=C1Nc2cc(Br)ccc2/C1=C1/Nc2ccccc2/C1=N\O
Unit text: %
kinase still bound, per cent of control: 89
--
Entry smiles: Cc1cnc(-c2cnc(NCCNc3ccc(C#N)cn3)nc2-c2ccc(Cl)cc2Cl)[nH]1
Unit text: %
kinase still bound, per cent of control: 50
